TESTED_TARGET: T1, Karyopherin beta2 (Kapβ2), full length, wild type (human, UniProt Q92973-2 1-890)
T1 construct: mature; Expressed as a GST fusion from pGEX-Tev and purified; Also used here for the Kapβ2 added in the GST pull-downs; also called Transportin
T1 sequence (looked up): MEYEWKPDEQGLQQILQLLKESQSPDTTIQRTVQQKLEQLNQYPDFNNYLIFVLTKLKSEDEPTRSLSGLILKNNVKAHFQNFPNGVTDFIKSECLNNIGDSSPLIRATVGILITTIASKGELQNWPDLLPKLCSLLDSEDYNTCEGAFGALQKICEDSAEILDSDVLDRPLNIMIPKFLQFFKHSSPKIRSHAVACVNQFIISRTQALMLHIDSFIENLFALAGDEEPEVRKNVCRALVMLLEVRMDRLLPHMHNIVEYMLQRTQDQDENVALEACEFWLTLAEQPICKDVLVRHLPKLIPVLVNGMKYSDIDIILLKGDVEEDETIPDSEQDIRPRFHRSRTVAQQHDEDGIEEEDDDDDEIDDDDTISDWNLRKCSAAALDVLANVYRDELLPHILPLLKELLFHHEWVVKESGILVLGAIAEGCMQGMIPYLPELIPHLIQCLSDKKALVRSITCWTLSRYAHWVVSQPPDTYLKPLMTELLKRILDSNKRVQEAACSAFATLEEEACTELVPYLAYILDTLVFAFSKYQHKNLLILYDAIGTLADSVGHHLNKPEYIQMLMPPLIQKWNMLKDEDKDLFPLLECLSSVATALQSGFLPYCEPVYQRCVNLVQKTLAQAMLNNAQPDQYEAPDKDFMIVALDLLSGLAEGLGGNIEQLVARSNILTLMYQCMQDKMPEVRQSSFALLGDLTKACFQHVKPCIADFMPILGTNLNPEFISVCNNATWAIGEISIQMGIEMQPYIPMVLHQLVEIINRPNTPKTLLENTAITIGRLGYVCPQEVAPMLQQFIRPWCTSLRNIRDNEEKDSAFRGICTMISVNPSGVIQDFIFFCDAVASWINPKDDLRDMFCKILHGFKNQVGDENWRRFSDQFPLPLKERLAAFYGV
PROCEDURE_TEXT: ITC; MBP-hnRNP M(41-70) mutant titrated into full-length Kapβ2
No end group written: not given here.
Provide the reported pKd of each item.
// field semantics: pKd = negative decimal log of concentration (mol/L)

Could you tell me which pKd is on file for ERPAQNEKRKEKNIKRGGNRAEAAANPTKR (other, not shown: large carriers; small tags and cut ends, also: MBP fusion partner, not in chain) [MBP-hnRNP M(41-70) F61A/P63A/Y64A] ? 5.07

And ERPAQNEKRKEKNIKRGGNRFEAAANPTKR (other, not shown: large carriers; small tags and cut ends, also: MBP fusion partner, not in chain) [MBP-hnRNP M(41-70) P63A/Y64A] ? 5.35

And ERPAQNEKRKEKNAKRGGNRFEPYANPTKR (other, not shown: large carriers; small tags and cut ends, also: MBP fusion partner, not in chain) [MBP-hnRNP M(41-70) I54A] ? 8.06

And ERPAQNEKRKEKNIARGGNRFEPYANPTKR (other, not shown: large carriers; small tags and cut ends, also: MBP fusion partner, not in chain) [MBP-hnRNP M(41-70) K55A] ? 8.12

And ERPAQNEKRKEKNIKRGGNRAEPYANPTKR (other, not shown: large carriers; small tags and cut ends, also: MBP fusion partner, not in chain) [MBP-hnRNP M(41-70) F61A] ? 7.95
